Tested on: MS2 coat protein
Experiment: apparent KD of MS2 coat protein; higher = weaker reporter binding
Conditions: Eterna round: R101; input ligand: FMN 200 uM
apparent KD of MS2 coat protein: recorded values
Unit nM implied. Number only.

Solved entries (count: 2):
AAAUAAAUUGAAGGAUAUGACCCUCGAGGUGACUAAAAGUCACCUCGAGGGUCAGAAGGUCGAGGAUCACCCGACCUAAAUAAA [#SharedSequence SLExNG1: 4-1] (puzzle (switch architecture): Small Loop Exclusion NG 1)	8.19
CUUAGUUUGUAGAAGGGUGACAUGAGGAUCACCCAUGUGCGUAGCCUGAAAGACCAGGGUACGCCACAGGAUAUACAAAGUAAG [Onenisa] (puzzle (switch architecture): Inverted Same State NG 2)	84.9

q: GET /values?readout=apparent KD of MS2 coat protein&item= AAUAAACAAUAAAAGACUGGAGCAAACUUUUGAGGAUCACCCAGAAGGCGUCACCUAAUAGGUGACGAGGAUAUGGAGCUCCAG [#SharedSequence IExNG# - 4] (puzzle (switch architecture): Inverted Exclusion NG 3)
a: 135
